# system under test: hA3AR (Homo sapiens, UniProt P0DMS8)
# experiment: βarr2 recruitment bioassay
# Assay type: cell-based
# measurement context: read-out: EC50, βarr2 recruitment; 90 min read-out, AUC, normalized to NECA
# Sequence (P32121 whole entry partner, one chain of several): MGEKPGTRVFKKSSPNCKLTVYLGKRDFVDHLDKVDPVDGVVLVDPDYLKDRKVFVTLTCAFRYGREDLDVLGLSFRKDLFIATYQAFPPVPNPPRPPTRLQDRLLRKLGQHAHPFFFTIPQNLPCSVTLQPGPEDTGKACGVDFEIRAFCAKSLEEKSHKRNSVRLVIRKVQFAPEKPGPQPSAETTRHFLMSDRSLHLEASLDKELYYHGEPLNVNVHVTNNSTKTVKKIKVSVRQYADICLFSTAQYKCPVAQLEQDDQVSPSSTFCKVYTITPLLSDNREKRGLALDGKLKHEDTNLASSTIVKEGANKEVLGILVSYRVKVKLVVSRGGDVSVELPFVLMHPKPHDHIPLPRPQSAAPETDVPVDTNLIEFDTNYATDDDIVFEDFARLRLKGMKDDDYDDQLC
value type: pEC50
Keep it numeric: pEC50 is minus log10 of the concentration in mol/L.

Asked: Under hA3AR (Homo sapiens, UniProt P0DMS8): pEC50 value of CC(C)Nc1ncnc2c1ncn2[C@@H]1O[C@H](CO)[C@H](O)C1O (stereo partly shown) ?
Given back: 6.17

---

# system under test: hA3AR (Homo sapiens, UniProt P0DMS8)
# Sequence (P0DMS8 1-318): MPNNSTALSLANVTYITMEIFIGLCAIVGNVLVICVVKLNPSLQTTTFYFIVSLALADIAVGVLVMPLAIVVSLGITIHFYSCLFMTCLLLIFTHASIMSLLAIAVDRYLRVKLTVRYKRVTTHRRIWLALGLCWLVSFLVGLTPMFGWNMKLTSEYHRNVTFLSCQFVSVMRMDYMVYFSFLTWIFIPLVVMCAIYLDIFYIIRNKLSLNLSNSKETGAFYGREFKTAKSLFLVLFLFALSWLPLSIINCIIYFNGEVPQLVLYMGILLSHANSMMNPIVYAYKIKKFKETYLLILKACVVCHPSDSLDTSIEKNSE
# experiment: miniGαi recruitment bioassay
# Assay type: cell-based
# measurement context: read-out: EC50, miniGαi recruitment; 90 min read-out, AUC, normalized to NECA
value type: EC50 (nM)
Respond numerically; units are nM and should not be typed.

Asked: Give the measured EC50 of CC(C)Nc1ncnc2c1ncn2[C@@H]1O[C@H](CO)[C@H](O)C1O (stereo partly shown) [compound 10] .
Given back: 433
